test system: BGC-823; experiment: Cytotoxicity against human BGC-823 cells assessed as reduction in cell viability measured upto 72 hrs by MTT assay; format: functional, cell-based; conditions: BGC-823, 72 h
parameter measured: IC50 (µM)
The response must be a number in µM with no trailing unit.

Consider the reported IC50 for these compounds:
- compound: "CC(=O)Oc1ccccc1C(=O)OCCC[Se]C#N"
  target under test: "BGC-823"
  IC50 / µM: 17.3
- compound: "O=c1[nH]cc(F)c(=O)[nH]1"
  target under test: "BGC-823"
  IC50 / µM: 15.4

IC50 reading for CC(C(=O)OCCC[Se]C#N)c1cccc(C(=O)c2ccccc2)c1 (stereo not given) : 12.6

Entry under test: CC(C(=O)OCCC[Se]C(F)(F)F)c1ccc(-c2ccccc2)c(F)c1 (stereo not given) . Its IC50 was 2.5

IC50 measured on CC1=C(CC(=O)OCCC[Se]C(F)(F)F)c2cc(F)ccc2/C1=C\c1ccc([S+](C)[O-])cc1 (stereo not given) = 14.4

* * *

tested on: BGC-823; assay: Cytotoxicity against human BGC-823 cells assessed as reduction in cell viability measured upto 72 hrs by MTT assay; assay type: functional, cell-based; conditions: BGC-823, 72 h
parameter measured: IC50 (µM)
Number in µM, nothing else.

Worked set:
- molecule: "Cc1cccc(Nc2ccccc2C(=O)OCCC[Se]C(F)(F)F)c1C"
  target under test: "BGC-823"
  parameter measured: "IC50"
  experimental result: 19.6
- molecule: "CC(C)Cc1ccc(C(C)C(=O)OCCC[Se]C#N)cc1 (stereo unspecified)"
  target under test: "BGC-823"
  parameter measured: "IC50"
  experimental result: 24.5
- molecule: "O=C(OCCC[Se]C(F)(F)F)c1ccccc1Nc1cccc(C(F)(F)F)c1"
  target under test: "BGC-823"
  parameter measured: "IC50"
  experimental result: 2.7
- molecule: "CCc1cccc2c3c([nH]c12)C(CC)(CC(=O)OCCC[Se]C#N)OCC3 (stereo unspecified)"
  target under test: "BGC-823"
  parameter measured: "IC50"
  experimental result: 21.4
- molecule: "CCc1cccc2c3c([nH]c12)C(CC)(CC(=O)OCCC[Se]C(F)(F)F)OCC3 (stereo unspecified)"
  target under test: "BGC-823"
  parameter measured: "IC50"
  experimental result: 18.5

Kindly review the next molecule as well.
IC50 in this record for COc1ccc2cc(C(C)C(=O)OCCC[Se]C(F)(F)F)ccc2c1 (stereo unspecified) : 10.8

* * *

tested on: BGC-823; assay: Cytotoxicity against human BGC-823 cells assessed as reduction in cell viability measured upto 72 hrs by MTT assay; assay type: functional, cell-based; settings: BGC-823, 72 h
Reported pIC50 values follow for various compounds
Recall that pIC50 is obtained by taking minus log10 of the concentration measured in molar.

Would you please look over these solved cases?
- compound: "COc1ccc2cc(C(C)C(=O)OCCC[Se]C#N)ccc2c1 (stereo unspecified)"
  pIC50: 4.76
- compound: "CC1=C(CC(=O)OCCC[Se]C#N)c2cc(F)ccc2/C1=C\\c1ccc([S+](C)[O-])cc1 (stereo unspecified)"
  pIC50: 4.76
- compound: "COc1ccc2c(c1)c(CC(=O)OCCC[Se]C(F)(F)F)c(C)n2C(=O)c1ccc(Cl)cc1"
  pIC50: 5.14
- compound: "N#C[Se]CCCOC(=O)c1ccccc1Nc1cccc(C(F)(F)F)c1"
  pIC50: 4.86
- compound: "CC(C(=O)OCCC[Se]C(F)(F)F)c1cccc(C(=O)c2ccccc2)c1 (stereo unspecified)"
  pIC50: 5.32

Recorded pIC50 (compound "COc1ccc2c(c1)c(CC(=O)OCCC[Se]C#N)c(C)n2C(=O)c1ccc(Cl)cc1" ): 4.45

The value of pIC50 measured for the compound CC(C(=O)OCCC[Se]C#N)c1ccc(-c2ccccc2)c(F)c1 (stereo unspecified) turned out to be 4.53

The recorded pIC50 for CC(C)Cc1ccc(C(C)C(=O)OCCC[Se]C(F)(F)F)cc1 (stereo unspecified) is 4.84
